- Assay system: human GLP-1R (human, UniProt P43220 24-463)
- Test protocol: cell-based or functional assay
Square brackets hold non-standard residues; d marks the D form. Side chains are listed from the residue outwards. αMeF = C[C@](N)(Cc1ccccc1)C(=O)O; Iva = CC[C@](C)(N)C(=O)O; Oda = not defined here; Aib = CC(C)(N)C(=O)O
Readout kind: Agonist activity (EC50), Cre-luc reporter assay
Value and unit, in that order.

Example entries begin here.
binder="Me-Y[Aib]EGT[αMeF]TSDK([Gly-Gly-Gly-Gly-Oda])SI[Aib]LEKQRQ[Iva]EFVRHLLNK[Aib]TRQRY-NH2 (reading uncertain; also: printed as Me-Tyr-Aib-Glu-Gly-Thr-αMePhe-Thr-Ser-Asp-Lys(-Gly-Gly-Gly-Gly-Oda)-Ser-Ile-Aib-Leu-Glu-Lys-Gln-Arg-Gln-Iva-Glu-Phe-Val-Arg-His-Leu-Leu-Asn-Lys-Aib-Thr-Arg-Gln-Arg-Tyr-NH2)" readout_value="1.3 nM"
binder=H-Y[Aib]EGT[αMeF]TSDK([Gly-Gly-Gly-Gly-Pal])[Aib]K[Aib]LDKQRQ[Iva]EFVRHLLNK[Aib]TRQRY-NH2 readout_value="0.06 nM"

Let me know recorded Agonist activity (EC50), Cre-luc reporter assay for `H-Y[Aib]EGT[αMeF]TSDK([Gly-Gly-Gly-Gly-Pal])SI[Aib]LDKQRQ[Iva]EFVRHLLNK[Aib]TRQRY-NH2` , thanks.
0.05 nM
